Reference source: the RNAGym collection of RNA variant scans (doi:10.1093/nar/gkz1192)

# self-cleavage listing for each entry below
B1: CPEB3 Ribozyme (parent)
chain: UAACAGGGGGCCACAGCAGAAGCGUUCACGUCGCAGCCCCUGUCAGAUUCUGGUGAAUCUGCGAAUUCUGCUGUAUAUCUC

- Variants of: B1
- procedure-details: self-cleavage, relative activity (ratio to wild type); higher = more cleavage; in vitro, sequencing
Give only the figure.

Known self-cleavage results, listed for orientation:
{"mutation-name": "A13G C38A", "self-cleavage": 0.13}
{"mutation-name": "G36U U67A", "self-cleavage": 0.64}
{"mutation-name": "A65G U74C", "self-cleavage": 0.79}

Short answer for U31A U48G : self-cleavage was 0.16

Short answer for U26A G36U : self-cleavage was 0.39

Short answer for A28U U78C : self-cleavage was 0.73

Short answer for G8A A21G : self-cleavage was 0.28

Short answer for A28G C39U : self-cleavage was 0.57

Short answer for U43C U51G : self-cleavage was 0.75

Short answer for G63C U67A : self-cleavage was 0.25

Short answer for U1C A5G : self-cleavage was 0.68
